- tgt: NHE1 (Homo sapiens, UniProt P19634)
- Construct: HLF cells (Human hepatoma cell line) were used as cells for the test; endogenous in cells
- Sequence (P19634 whole entry): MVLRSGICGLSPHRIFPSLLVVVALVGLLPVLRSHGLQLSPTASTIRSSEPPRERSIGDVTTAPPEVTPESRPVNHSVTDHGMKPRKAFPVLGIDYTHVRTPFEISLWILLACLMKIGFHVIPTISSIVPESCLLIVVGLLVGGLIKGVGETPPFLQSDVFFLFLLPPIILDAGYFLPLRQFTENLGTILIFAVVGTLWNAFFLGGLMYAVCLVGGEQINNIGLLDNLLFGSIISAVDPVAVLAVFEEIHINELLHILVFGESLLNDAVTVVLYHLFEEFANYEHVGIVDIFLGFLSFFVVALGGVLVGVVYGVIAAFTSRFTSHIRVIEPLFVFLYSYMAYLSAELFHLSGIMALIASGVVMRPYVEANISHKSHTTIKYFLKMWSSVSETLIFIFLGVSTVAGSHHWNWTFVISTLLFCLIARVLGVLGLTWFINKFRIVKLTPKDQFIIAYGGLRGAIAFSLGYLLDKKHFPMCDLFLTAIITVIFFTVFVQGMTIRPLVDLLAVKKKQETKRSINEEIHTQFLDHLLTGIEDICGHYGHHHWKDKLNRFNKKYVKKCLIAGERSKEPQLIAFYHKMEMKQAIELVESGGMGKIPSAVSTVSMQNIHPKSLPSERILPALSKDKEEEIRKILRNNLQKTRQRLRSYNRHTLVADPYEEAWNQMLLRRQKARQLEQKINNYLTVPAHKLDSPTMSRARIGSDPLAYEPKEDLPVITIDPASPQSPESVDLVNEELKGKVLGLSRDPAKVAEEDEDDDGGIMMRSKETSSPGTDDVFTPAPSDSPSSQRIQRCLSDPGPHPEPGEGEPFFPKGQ
- method-notes: Measurements of NHE1 inhibitory activities (HLF cells, BCECF pH recovery)
- condition-set: HLF cells (human hepatoma cell line), measured after 10 minutes; read-out: hNHE1 IC50
outcome-measure: IC50 (nM)

Solved cases below.
[
  {
    "input-smiles": "C/C(=C\\c1ccccc1-c1ccc(O)cc1O)C(=O)NC(=N)N",
    "units-text": "nM",
    "reading": 2900
  },
  {
    "input-smiles": "C/C(=C\\c1ccc(-c2ccc(O)cc2)cc1N1CCOCC1)C(=O)NC(=N)N",
    "units-text": "nM",
    "reading": 2100
  },
  {
    "input-smiles": "C/C(=C\\c1ccccc1-c1ccc(O)c(O)c1)C(=O)NC(=N)N",
    "units-text": "nM",
    "reading": 500
  },
  {
    "input-smiles": "C/C(=C\\c1ccccc1-c1ccc(O)cc1Cl)C(=O)NC(=N)N",
    "units-text": "nM",
    "reading": 910
  },
  {
    "input-smiles": "C/C(=C\\c1ccc(-c2cc(C)c(O)c(C)c2)cc1-c1cc(C)c(O)c(C)c1)C(=O)NC(=N)N",
    "units-text": "nM",
    "reading": 1800
  },
  {
    "input-smiles": "C/C(=C\\c1ccc(-c2ccc(F)c(O)c2)cc1-c1ccc(F)c(O)c1)C(=O)NC(=N)N",
    "units-text": "nM",
    "reading": 1100
  },
  {
    "input-smiles": "C/C(=C\\c1ccc(C(F)(F)F)cc1-c1ccc(O)cc1)C(=O)NC(=N)N",
    "units-text": "nM",
    "reading": 5200
  },
  {
    "input-smiles": "C/C(=C\\c1ccc(C)cc1-c1cccc(O)c1)C(=O)NC(=N)N",
    "units-text": "nM",
    "reading": 1600
  }
]

I = C/C(=C\c1ccccc1-c1ccc(O)c(C)c1)C(=O)NC(=N)N
II = C/C(=C\c1cccc(C)c1-c1cccc(O)c1)C(=O)NC(=N)N
Request: Please choose the item with the lower IC50 value from this pair: I and II Answer by quoting the chosen item's label.
Result: II
(II: 1700 nM, I: 4300 nM)
